assayExplanation: chemical genetic growth profiling, strain panel (AID 1159580);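 also: tested at 20 µM; growth read once vehicle control cultures reached saturation at 30 °C; 1 = growth at the plate median or of vehicle wells; lower values mean less growth of the strain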
particulars: S. cerevisiae deletion strains, growth OD, locus YHR087W, strain rtc3, hits give low values
Hit rate of the full screen: of about 5,500 compounds, about 2,000 (36%) were called active. Roughly 18% stayed inconclusive and do not appear here. The list shows a part of the results.
quantity: normalized growth

> print(dat)
                                    compound    observedresult
 1                          NNC(=O)c1ccccc1O   0.99 (inactive)
 2                     O=C(Nc1nncs1)c1ccncc1      1 (inactive)
 3  C/C(=N/Nc1c(Cl)cc(Cl)cc1Cl)c1cc(F)ccc1OC(=O)c1ccccc1F  0.978 (inactive)
 4  O=C(O)CC(CC(=O)Nc1ccc(I)cc1F)c1ccc(C(F)(F)F)cc1 (stereo not given)  0.981 (inactive)
 5           N/C(=N/O)c1csc(-c2ccc(F)cc2F)n1   0.98 (inactive)
 6                    O=C(Nc1ccccc1)NC1CCCC1  0.997 (inactive)
 7       O=C(Nc1nccs1)c1ccc([N+](=O)[O-])cc1  0.973 (inactive)
 8       CC(=O)Nc1ccc(S(=O)(=O)Nc2ncccn2)cc1  0.987 (inactive)
 9  O=C(NCc1nc(-c2ccc(C(F)(F)F)cc2)no1)Nc1ccc(F)cc1F  0.973 (inactive)
10  FC(F)(F)c1cc(-n2c(CCc3nc(-c4ccc(Cl)cc4)no3)n[nH]c2=S)cc(C(F)(F)F)c1   1.03 (inactive)
11  O=C(NNc1c(Cl)cc(Cl)cc1Cl)NC(=O)c1ccccc1F   1.02 (inactive)
12         COc1ccc(-c2ccc(C=C(C#N)C#N)s2)cc1  0.939 (inactive)
13  OC1(c2ccc(Cl)cc2)CSc2nc3cc(C(F)(F)F)ccc3n21 (stereo not given)   1.03 (inactive)
14              CSC(=NC(=O)c1c(Cl)cccc1Cl)SC    0.896 (active)
15      COc1ccc(-n2c(-c3ccc(C)cc3)csc2=N)cc1  0.995 (inactive)

Cited source for all entries: PubChem BioAssay AID1159580
